From: PubChem BioAssay AID1347426

- Procedure details: Novel Modifiers of Survival Motor Neuron (SMN) Protein: Gene Identification via Genome-wide siRNA Screen;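 also: luminescence tracks full-length SMN protein made from the SMN2 reporter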
- Recorded conditions: HEK293T SMN2-luciferase reporter, siRNA knockdown, 72 h; actives lie on both sides
In all, about 31,000 sequences went through this assay and about 1,400 (4.5%) were called active.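 The calls were made as follows: active = median seed-adjusted z-score above 1 or below -1; inactive = the rest.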 Only a selection was taken, and actives are over-represented in it overall.
Reply using exactly one outcome from YES (active), NO (inactive)

Prompt line: Assay result, entry GGUGGUAUCUGUUUCCGUATT against PCAF — outcome?
Response line: NO

Prompt line: And what about the sequence CCCAAUUCAGAUUACUACATT against POLN ?
Response line: NO

Prompt line: And what about the sequence GCUUCGUGAGCUUUGAUAATT against BRUNOL5 ?
Response line: NO

Prompt line: And what about the sequence GCUUGCAGUUAAUAUCAUUTT against ODC1 ?
Response line: YES

Prompt line: And what about the sequence GCGUGGACCCAAAUCAAUATT against KARS ?
Response line: NO

Prompt line: And what about the sequence CCCAGACAAAUUACCUAUATT against CAD ?
Response line: YES

Prompt line: And what about the sequence AGAGAUCACCGAUUACAGATT against ISG20 ?
Response line: NO

Prompt line: And what about the sequence GAACUUUAUUGCAAAGUUUTT against CSRP3 ?
Response line: NO

Prompt line: And what about the sequence GAUACGAAAUGGUGUUAAATT against POLG2 ?
Response line: NO

Prompt line: And what about the sequence CGCCCAACCUUACUACCUUTT against TXNDC14 ?
Response line: YES

Prompt line: And what about the sequence GCAGAAAAGAACAACUUGUTT against RAB11B ?
Response line: NO

Prompt line: And what about the sequence CCACAUUGGUUACCACUAATT against ITGAV ?
Response line: YES
